compounds and their reported DC50
System tested: BTK (Homo sapiens, UniProt Q06187)
Construct: endogenous in cells; host or cells: Ramos cells
Sequence (Q06187 whole entry): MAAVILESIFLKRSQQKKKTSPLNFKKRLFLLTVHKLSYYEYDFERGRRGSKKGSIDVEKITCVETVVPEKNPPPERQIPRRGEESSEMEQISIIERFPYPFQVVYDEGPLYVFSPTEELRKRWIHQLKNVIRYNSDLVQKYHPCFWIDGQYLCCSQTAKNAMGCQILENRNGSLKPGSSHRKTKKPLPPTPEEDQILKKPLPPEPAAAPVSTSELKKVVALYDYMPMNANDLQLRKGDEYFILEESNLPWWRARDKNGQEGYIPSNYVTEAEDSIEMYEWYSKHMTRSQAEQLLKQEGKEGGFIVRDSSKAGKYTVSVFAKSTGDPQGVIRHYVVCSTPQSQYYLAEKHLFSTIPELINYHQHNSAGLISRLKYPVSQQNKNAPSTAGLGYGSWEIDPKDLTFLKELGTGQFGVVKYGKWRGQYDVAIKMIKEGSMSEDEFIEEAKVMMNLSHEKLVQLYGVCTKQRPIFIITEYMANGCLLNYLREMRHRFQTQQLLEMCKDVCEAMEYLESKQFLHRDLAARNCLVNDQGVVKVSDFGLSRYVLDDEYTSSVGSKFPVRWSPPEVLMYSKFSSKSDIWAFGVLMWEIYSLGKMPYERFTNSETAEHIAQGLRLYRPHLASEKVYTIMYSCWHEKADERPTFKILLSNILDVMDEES
Measurement notes: BTK cell degradation in Ramos cells (total BTK ELISA)
Format: cell-based
Protocol conditions: 16 h incubation, FastScan total BTK ELISA
Respond with the bare value in nM.

• NC(=O)c1c(-c2ccc(Oc3ccccc3)cc2)nn2c1NCC[C@H]2C1CCN(C(=O)CCN2CCN(c3ccc(CNC(=O)CCN4C(=O)CCC(N5Cc6c(N)cccc6C5=O)C4=O)cc3)CC2)CC1 (some centres unmarked) = 2360
• NC(=O)c1c(-c2ccc(Oc3ccccc3)cc2)nn2c1NCC[C@H]2C1CCN(C(=O)CCN2CCN(C(=O)CNc3ccc4c(c3)C(=O)N(C3CCC(=O)NC3=O)C4=O)CC2)CC1 (some centres unmarked) = 2.9

query: For the compound shown here, NC(=O)c1c(-c2ccc(Oc3ccccc3)cc2)nn2c1NCC[C@H]2C1CCN(C(=O)CCNc2cccc3c2C(=O)N(C2CCC(=O)NC2=O)C3=O)CC1 (some centres unmarked) , give the reported DC50.
result: 637

----------
System tested: BTK (Homo sapiens, UniProt Q06187)
Construct: endogenous in cells; host or cells: Ramos cells
Measurement notes: BTK cell degradation in Ramos cells (total BTK ELISA)
Assay type: cell-based
Protocol conditions: 16 h incubation, FastScan total BTK ELISA
Experimental readout: DC50

* NC(=O)c1c(-c2ccc(Oc3ccccc3)cc2)nn2c1NCC[C@H]2C1CCN(C(=O)CCCc2cn(CCOCCOCCOCCNc3cccc4c3C(=O)N(C3CCC(=O)NC3=O)C4=O)nn2)CC1 (stereo partly shown) | 0.388 µM
* NC(=O)c1c(-c2ccc(Oc3ccccc3)cc2)nn2c1NCC[C@H]2C1CCN(C2CCN(Cc3ccc(C(=O)NCCNc4cccc5c4C(=O)N(C4CCC(=O)NC4=O)C5=O)cc3)CC2)CC1 (stereo partly shown) | > 10 µM
* NC(=O)c1c(-c2ccc(Oc3ccccc3)cc2)nn2c1NCC[C@H]2C1CCN(C(=O)c2cn(CCOCCOCCOCCOCCOCCNc3ccc4c(c3)C(=O)N(C3CCC(=O)NC3=O)C4=O)nn2)CC1 (stereo partly shown) | 0.078 µM

query: Field request: DC50 | item: NC(=O)c1c(-c2ccc(Oc3ccccc3)cc2)nn2c1NCC[C@H]2C1CCN(C(=O)c2cn(CCOCCOCCOCC#Cc3cccc4c3CN(C3CCC(=O)NC3=O)C4=O)nn2)CC1 (stereo partly shown)
result: > 10 µM

query: Can you look up the measured DC50 of CN(C/C=C/C(=O)N1CCC([C@@H]2CCNc3c(C(N)=O)c(-c4ccc(Oc5ccccc5)cc4)nn32)CC1)CCOCCOCCOCCN1C(=O)CCC(N2Cc3c(N)cccc3C2=O)C1=O (stereo partly shown) for me?
result: 0.144 µM

----------
Reported DC50 by item:
System tested: BTK (Homo sapiens, UniProt Q06187)
Construct: endogenous in cells; host or cells: Ramos cells
Measurement notes: BTK cell degradation in Ramos cells (total BTK ELISA)
Assay type: cell-based
Protocol conditions: 16 h incubation, FastScan total BTK ELISA

// worked examples, DC50 included
• NC(=O)c1c(-c2ccc(Oc3ccccc3)cc2)nn2c1NCC[C@H]2C1CCN(C(=O)CCCNC(=O)COCCOCCOCCOCCNc2cccc3c2C(=O)N(C2CCC(=O)NC2=O)C3=O)CC1 (some centres unmarked) = 1890 nM
• CN(C/C=C/C(=O)N1CCC([C@@H]2CCNc3c(C(N)=O)c(-c4ccc(Oc5ccccc5)cc4)nn32)CC1)CCCCCCN1C(=O)CCC(N2Cc3c(N)cccc3C2=O)C1=O (some centres unmarked) = > 10000 nM
• NC(=O)c1c(-c2ccc(Oc3ccccc3)cc2)nn2c1NCC[C@H]2C1CCN(C(=O)c2cn(CCOCCOCCOCCOCCOCCNc3cccc4c3C(=O)N(C3CCC(=O)NC3=O)C4=O)nn2)CC1 (some centres unmarked) = 78 nM
• NC(=O)c1c(-c2ccc(Oc3ccccc3)cc2)nn2c1NCC[C@H]2C1CCN(C(=O)c2cn(CCOCCOCCOCCOCCCc3cccc4c3CN(C3CCC(=O)NC3=O)C4=O)nn2)CC1 (some centres unmarked) = > 10000 nM

Consider the record given below.
query: Which DC50 reading was recorded for the compound NC(=O)c1c(-c2ccc(Oc3ccccc3)cc2)nn2c1NCC[C@H]2C1CCN(C(=O)CCCc2ccc(NC(=O)CNc3ccc4c(c3)C(=O)N(C3CCC(=O)NC3=O)C4=O)cc2)CC1 (some centres unmarked) ?
result: 28 nM
